Study Target: Bcl-2-like protein 10 (Homo sapiens) (UniProt Q9HD36)
Sequence (Q9HD36 whole entry, looked up): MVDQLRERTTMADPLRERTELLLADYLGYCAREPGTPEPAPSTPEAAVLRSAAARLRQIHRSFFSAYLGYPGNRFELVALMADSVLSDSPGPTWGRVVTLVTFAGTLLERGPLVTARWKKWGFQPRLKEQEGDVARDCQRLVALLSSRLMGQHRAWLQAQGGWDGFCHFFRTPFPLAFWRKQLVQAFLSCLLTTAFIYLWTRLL
Measurement Description: TR3 peptide-Bcl-B binding displacers, biochemical primary FP assay, phenotype converters (AID 1240);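 also: 0% = Bcl-B with tracer peptide and DMSO and 100% = tracer peptide lacking Bcl-B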
Condition Set: GST-Bcl-B / FITC-TR3 peptide fluorescence polarization; stronger effect = higher value; compound at 3.75 mg/L
The campaign covered roughly 50,000 compounds. About 800 (1.6%) showed an effect of 50% or more. The list comes from a sample in which strong results are over-represented; it also holds close analogues and randomly drawn compounds.

[
  {
    "Compound": "O=C(Cc1ccc(Cl)cc1)NNC(=O)C1CCCO1 (stereo not drawn)",
    "displacement": "2.5%"
  },
  {
    "Compound": "O=C1c2cccc3cccc(c23)C(=O)N1Nc1ccc([N+](=O)[O-])cc1",
    "displacement": "3.8%"
  },
  {
    "Compound": "O=C(COC(=O)CN1C(=O)c2ccccc2C1=O)Nc1cccc2ccccc12",
    "displacement": "-8.1%"
  }
]
